# TARGET_OF_ASSAY: c-Src SH2
# ASSAY_OVERVIEW: SH2 binding enrichment of the phosphorylated peptide, bacterial display (enrichment ratio); higher = better substrate or ligand; peptides without Tyr show the background
Measured SH2 binding enrichment, listed per entry.
READOUT_LABEL: SH2 binding enrichment

RESIDUE_CODES	OBSERVED_VALUE
AVLVQYYMEHH [PTPN11_Y80_E76V]	1.18
GYYDLYGGEKF [PTPN11_Y66_D61G]	3.86
YCVDCYKNFVA [FHL1_Y213]	1.02
SLTRLYVGENA [NLRP3_Y861]	0.438
SMGHRYIEVFR [HNRNPF_Y82_K87R]	3.04
NQNIGYELGHR [KCNN3_Y268_K269E]	0.672
EGDGVYTLNNE [HP_Y125]	0.403
RLGDLYKEEMR [VIM_Y150_E151K]	0.607
SREDIYKRNTE [PDE4DIP_Y45_I49T]	0.344
NIISFYLSRDP [CTSD_Y232_F229I]	1.11
PFTRNYFVQAV [CYBA_Y87_R90Q_YF]	0.533
PPNSPYIGSSP [KCNT1_Y740]	0.371
DFPMGYPSYLA [TBCK_Y153_I151M]	0.572
PPNSPYMGSSP [KCNT1_Y740_I741M]	0.481

----------
The entries below are paired with their reported phosphorylation enrichment.
# TARGET_OF_ASSAY: Fyn (UniProt P06241)
# Sequence (P06241 whole entry, looked up): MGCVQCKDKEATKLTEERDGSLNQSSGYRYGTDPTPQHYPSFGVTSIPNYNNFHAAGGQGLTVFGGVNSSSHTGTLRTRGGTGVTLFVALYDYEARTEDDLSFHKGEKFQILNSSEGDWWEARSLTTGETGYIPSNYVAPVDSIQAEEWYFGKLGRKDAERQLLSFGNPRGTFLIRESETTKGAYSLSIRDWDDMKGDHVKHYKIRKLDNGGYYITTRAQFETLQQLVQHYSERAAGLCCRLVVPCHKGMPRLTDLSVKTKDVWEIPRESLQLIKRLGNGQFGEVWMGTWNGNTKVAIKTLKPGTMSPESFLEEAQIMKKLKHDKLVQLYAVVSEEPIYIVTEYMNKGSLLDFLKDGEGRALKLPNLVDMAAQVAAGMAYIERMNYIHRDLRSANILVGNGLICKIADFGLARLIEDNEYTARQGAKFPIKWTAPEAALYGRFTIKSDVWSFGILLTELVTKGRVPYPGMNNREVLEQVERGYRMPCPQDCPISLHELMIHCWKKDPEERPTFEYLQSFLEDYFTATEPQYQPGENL
# ASSAY_OVERVIEW: phosphorylation enrichment, bacterial display (enrichment ratio); higher = better substrate or ligand; peptides without Tyr show the background

RESIDUE_CODES	TARGET_OF_ASSAY	phosphorylation enrichment
SIKDKYLTALF [KCNH2_Y611_V612L_YF]	Fyn (UniProt P06241)	0.448
CRPPFYHRNCM [HGD_Y334_F329C_YF]	Fyn (UniProt P06241)	0.492
FRASFYRKGGC [ALK_Y1283_YF]	Fyn (UniProt P06241)	0.618
FFFDLYGGEKF [PTPN11_Y66_D61Y_YF]	Fyn (UniProt P06241)	0.66
SAVTGYRVDVI [FN1_Y937]	Fyn (UniProt P06241)	0.425
CEHRGSLYLAI [TEK_Y897_Y897S]	Fyn (UniProt P06241)	0.552
LDFPEYDGVDR [CASQ1_Y43]	Fyn (UniProt P06241)	0.75
AVLSLYASGRN [ACTA1_Y145_T150N]	Fyn (UniProt P06241)	0.44
LTFDEYRNNSQ [ANXA3_Y216_I219N]	Fyn (UniProt P06241)	0.675
ICGVSYDEYRY [CFTR_Y512_F508C]	Fyn (UniProt P06241)	0.637
TTPYNYSYIFK [RAB14_Y8_A4T]	Fyn (UniProt P06241)	0.593
GFSDPYVKAFL [SYT3_Y470_S474F]	Fyn (UniProt P06241)	0.481
KVNKIYHPDFI [LIG3_Y767_Y768H]	Fyn (UniProt P06241)	0.417
IIRQLYLKWHP [SACS_Y4333_R4331Q]	Fyn (UniProt P06241)	0.38
QLAPQYTFTQG [FLNA_Y1761_A1764T_YF]	Fyn (UniProt P06241)	1.09
EEGESDVCSSD [DCX_Y125_Y125D]	Fyn (UniProt P06241)	0.505
AVVEPYNSILT [TUBA1A_Y185]	Fyn (UniProt P06241)	0.434
ATARPYRPYII [LRP5_Y1528]	Fyn (UniProt P06241)	0.55
YCVDCYKNFVA [FHL1_Y213]	Fyn (UniProt P06241)	0.532
FCRHNYGVGES [HLA-DRB1_Y112_V115G_YF]	Fyn (UniProt P06241)	0.498
GLSAPYVKIHL [SYT2_Y309_D307A]	Fyn (UniProt P06241)	0.337
VNTMLYEKFTF [TEK_Y1108_T1106M_YF]	Fyn (UniProt P06241)	5.93
DLEKTYNTYRS [B4GALNT2_Y538_A533D]	Fyn (UniProt P06241)	0.845
NTVLGYFIGRI [GARS1_Y408]	Fyn (UniProt P06241)	0.427
VYLGAYDRFLP [SLC22A5_Y486]	Fyn (UniProt P06241)	4.5
HRGFLYLAIEF [TEK_Y899_Y897F_YF]	Fyn (UniProt P06241)	0.352
AVDMTYDGHPV [FLNB_Y1020_V1018M]	Fyn (UniProt P06241)	3.3
RGRSTYYWPRP [GAGE12J_Y9]	Fyn (UniProt P06241)	0.68
PNLILYGDFRQ [MYH7_Y715_R712L]	Fyn (UniProt P06241)	5.16

----------
# TARGET_OF_ASSAY: FGFR1 (UniProt P11362)
# Sequence (P11362 whole entry, looked up): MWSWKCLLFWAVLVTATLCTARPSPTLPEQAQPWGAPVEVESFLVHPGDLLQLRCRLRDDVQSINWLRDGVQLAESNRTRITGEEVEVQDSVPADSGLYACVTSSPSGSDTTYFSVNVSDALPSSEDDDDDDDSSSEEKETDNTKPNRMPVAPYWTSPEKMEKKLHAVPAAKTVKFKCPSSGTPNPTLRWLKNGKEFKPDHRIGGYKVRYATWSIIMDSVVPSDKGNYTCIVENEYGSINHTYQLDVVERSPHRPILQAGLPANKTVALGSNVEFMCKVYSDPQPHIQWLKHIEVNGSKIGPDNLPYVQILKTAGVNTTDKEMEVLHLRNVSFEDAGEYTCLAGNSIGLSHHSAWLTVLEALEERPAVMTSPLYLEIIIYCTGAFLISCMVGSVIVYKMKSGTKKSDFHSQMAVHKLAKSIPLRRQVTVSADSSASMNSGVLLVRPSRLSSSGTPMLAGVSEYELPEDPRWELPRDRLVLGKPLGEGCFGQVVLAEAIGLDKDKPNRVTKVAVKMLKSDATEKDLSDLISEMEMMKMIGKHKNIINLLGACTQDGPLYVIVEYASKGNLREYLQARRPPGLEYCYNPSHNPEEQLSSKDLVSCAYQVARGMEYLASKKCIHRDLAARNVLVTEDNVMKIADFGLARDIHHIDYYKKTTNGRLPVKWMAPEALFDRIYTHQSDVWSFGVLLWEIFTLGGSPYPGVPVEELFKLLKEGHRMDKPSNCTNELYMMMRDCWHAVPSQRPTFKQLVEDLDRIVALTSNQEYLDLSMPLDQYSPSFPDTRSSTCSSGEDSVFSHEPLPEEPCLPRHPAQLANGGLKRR
# ASSAY_OVERVIEW: phosphorylation enrichment, bacterial display (enrichment ratio); higher = better substrate or ligand; peptides without Tyr show the background
Class Yes: phosphorylation enrichment at least 0.5. Class No: phosphorylation enrichment below 0.5.

RESIDUE_CODES	ASSIGNED_CATEGORY
GLSDPYVKIHL [SYT2_Y309]	Yes
KNRDVSSSDYF [USP24_Y2134_Y2134S]	Yes
ENAGYYFQVSA	Yes
APRKVYDTRDD [ZFPL1_Y215]	No
QLRPGYFPIPV [BAG3_Y93_I94F]	Yes
VKKKLYEEIDQ [CYP17A1_Y329]	No
IHHIDYYKKTT [FGFR1_Y653]	No
FGGTVCHSPVS [PRC1_Y511_Y511C]	Yes
DAVKHYMQFRK [CNGA2_Y395]	No
PTYENYANSTQ [SLC12A3_Y70_H69N]	Yes
IQKWEYVPLGT [FAH_Y244_P249T]	Yes
GKTQQYECKWF [BCR_Y751_D752E_YF]	Yes
TYGVLYKARNK [CDK2_Y19_V18L]	No
ADGLEYSRTEL [MMUT_Y287_G291E]	Yes

----------
# phosphorylation enrichment annotations
# TARGET_OF_ASSAY: MERTK (UniProt Q12866)
# Sequence (Q12866 whole entry, looked up): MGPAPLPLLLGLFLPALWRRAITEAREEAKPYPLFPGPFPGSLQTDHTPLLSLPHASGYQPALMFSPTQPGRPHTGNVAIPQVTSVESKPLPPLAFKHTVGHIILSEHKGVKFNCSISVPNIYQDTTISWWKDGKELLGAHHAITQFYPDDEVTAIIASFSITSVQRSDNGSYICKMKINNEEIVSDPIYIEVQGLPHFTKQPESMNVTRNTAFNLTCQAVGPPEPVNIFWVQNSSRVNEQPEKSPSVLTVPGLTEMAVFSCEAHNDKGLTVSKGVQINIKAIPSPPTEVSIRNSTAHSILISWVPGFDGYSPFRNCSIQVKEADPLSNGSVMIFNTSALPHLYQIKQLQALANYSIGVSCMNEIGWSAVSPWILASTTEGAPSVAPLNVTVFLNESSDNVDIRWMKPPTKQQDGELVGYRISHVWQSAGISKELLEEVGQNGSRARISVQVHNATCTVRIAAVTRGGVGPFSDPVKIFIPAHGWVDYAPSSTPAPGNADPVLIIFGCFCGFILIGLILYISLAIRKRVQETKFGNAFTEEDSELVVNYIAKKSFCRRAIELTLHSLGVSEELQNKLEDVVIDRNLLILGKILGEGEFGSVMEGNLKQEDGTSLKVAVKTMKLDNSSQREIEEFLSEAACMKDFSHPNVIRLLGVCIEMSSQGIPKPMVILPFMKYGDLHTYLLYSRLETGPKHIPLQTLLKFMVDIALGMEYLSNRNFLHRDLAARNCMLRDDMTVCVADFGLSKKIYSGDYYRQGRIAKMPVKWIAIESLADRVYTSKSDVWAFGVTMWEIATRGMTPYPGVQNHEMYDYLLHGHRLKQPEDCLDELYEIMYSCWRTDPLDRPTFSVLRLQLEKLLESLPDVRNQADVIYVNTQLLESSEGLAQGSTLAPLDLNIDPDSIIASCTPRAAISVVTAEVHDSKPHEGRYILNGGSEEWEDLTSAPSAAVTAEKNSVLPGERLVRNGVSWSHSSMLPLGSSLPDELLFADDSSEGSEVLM
# ASSAY_OVERVIEW: phosphorylation enrichment, bacterial display (enrichment ratio); higher = better substrate or ligand; peptides without Tyr show the background

RESIDUE_CODES	TARGET_OF_ASSAY	phosphorylation enrichment
GGDVIYKGFED [NFU1_Y194]	MERTK (UniProt Q12866)	0.466
FFTEEYVRAHP [DOCK2_Y1555_D1558A]	MERTK (UniProt Q12866)	0.397
TSNQEYLYLSM [FGFR1_Y766_D768Y]	MERTK (UniProt Q12866)	5.28
FRQNGYIPGSN [PCDHGA1_Y895_V894G_YF]	MERTK (UniProt Q12866)	0.393
FYNSEYGELSE [FLT4_Y1337]	MERTK (UniProt Q12866)	0.589
DFSLKYPTDIP [APC_Y1183_A1184P_YF]	MERTK (UniProt Q12866)	0.52
HNLDYYKETTN [FGFR3_Y648_K650E]	MERTK (UniProt Q12866)	0.553
FCRHNYGVGES [HLA-DRB1_Y112_V115G_YF]	MERTK (UniProt Q12866)	0.372
LFSGDCFRIQG [DDR2_Y740_Y740C_YF]	MERTK (UniProt Q12866)	0.425
SLIDMYSKVLD [OPA1_Y268_E270K]	MERTK (UniProt Q12866)	0.481
LDYNEYFRGLN [HPRT1_Y198_D201G]	MERTK (UniProt Q12866)	0.733
FADIAYNFRHA [PAH_Y166_G171A_YF]	MERTK (UniProt Q12866)	0.388
KVKPIYFHTQG [AR_Y916]	MERTK (UniProt Q12866)	0.356
TMKSRYMELYD [BBS2_Y644]	MERTK (UniProt Q12866)	0.456

----------
# TARGET_OF_ASSAY: SHP2-C SH2
# ASSAY_OVERVIEW: SH2 binding enrichment of the phosphorylated peptide, bacterial display (enrichment ratio); higher = better substrate or ligand; peptides without Tyr show the background
Label 1 when SH2 binding enrichment >= 0.9; otherwise 0.

RESIDUE_CODES	ASSIGNED_CATEGORY
AVDMTYDGHPV [FLNB_Y1020_V1018M]	0
NQELIYEGQRL [TBK1_Y354_R357Q]	0
ASYGPNTRVQS [FOXL2_Y258_Y258N]	0
KPIETYFSKNY [PLP1_Y50_L46P]	0
FFTEEYVRAHP [DOCK2_Y1555_D1558A]	0
QEGPEYWDEET [HLA-A_Y83_Q86E]	0
VRFMAYTDETC [F8_Y450_F455C]	1
CGASGYSATST [CERT1_Y143_S138C]	0
SSSNPYSTVTM [ACTN2_Y599]	1
TVSSDYLHPQF [CCPG1_Y569_F566S_YF]	0
PNLILYGDFRQ [MYH7_Y715_R712L]	0
LLKAGYHGVLR [TTPA_Y100]	1
